Listed here: items and their measured Ratio IC50.
# Species on record: Homo sapiens
# assay text: Selectivity ratio of IC50 for human N-terminal His6-tagged platelet 12-lipoxygenase over IC50 for human N-terminal His6-tagged reticulocyte 15-lipoxygenase-1

{"mol": "O=C(OCC#CCSc1nnc(-c2cccc3ccccc23)o1)c1ccccc1", "Ratio IC50": "> 7500"}
{"mol": "O=C(OCC#CCSc1nnc(-c2cccc3ccccc23)o1)c1ccc(OC(F)(F)F)cc1", "Ratio IC50": "> 7500"}
{"mol": "O=C(OCC#CCSc1nnc(-c2cccc3ccccc23)o1)c1cc2ccccc2s1", "Ratio IC50": "> 7500"}
{"mol": "O=C(OCC#CCSc1nnc(-c2cccc3ccccc23)o1)c1ccc(C(F)(F)F)cc1", "Ratio IC50": "> 7500"}
{"mol": "O=C(OCC#CCSc1nnc(-c2cccc3ccccc23)o1)c1ccc(F)c(F)c1", "Ratio IC50": "> 7500"}

Now for the molecule whose Ratio IC50 we want.
I would be grateful if you could share the reported Ratio IC50 for O=C(OCC#CCSc1nnc(-c2ccc(Cl)cc2)o1)c1ccc(F)cc1 .
> 7500

====

# target of assay: Polyunsaturated fatty acid lipoxygenase ALOX15 (Homo sapiens)
# Sequence (P16050 whole entry): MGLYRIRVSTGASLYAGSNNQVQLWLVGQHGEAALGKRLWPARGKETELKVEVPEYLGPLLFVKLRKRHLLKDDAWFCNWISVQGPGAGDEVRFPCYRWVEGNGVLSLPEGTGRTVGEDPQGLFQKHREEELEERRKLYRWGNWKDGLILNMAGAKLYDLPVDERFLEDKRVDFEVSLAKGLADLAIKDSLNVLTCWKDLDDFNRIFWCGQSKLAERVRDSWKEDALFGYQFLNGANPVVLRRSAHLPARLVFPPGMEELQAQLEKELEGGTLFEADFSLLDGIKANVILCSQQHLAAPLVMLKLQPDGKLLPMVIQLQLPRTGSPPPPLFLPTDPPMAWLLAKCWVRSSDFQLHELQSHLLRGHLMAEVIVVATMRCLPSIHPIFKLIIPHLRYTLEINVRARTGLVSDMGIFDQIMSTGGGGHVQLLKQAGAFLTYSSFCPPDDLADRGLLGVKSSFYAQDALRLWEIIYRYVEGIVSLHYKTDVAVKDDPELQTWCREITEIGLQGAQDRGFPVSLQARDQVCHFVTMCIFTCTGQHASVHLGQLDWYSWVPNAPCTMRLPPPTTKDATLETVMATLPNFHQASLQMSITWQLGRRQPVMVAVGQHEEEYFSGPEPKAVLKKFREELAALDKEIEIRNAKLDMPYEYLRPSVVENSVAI
# assay text: Inhibition of human N-terminal His6-tagged reticulocyte 15-lipoxygenase-1 after 15 mins by UV-vis spectrophotometer analysis
# measurement context: read-out: Ki(app)
Listing: Ki of selected compounds

So what's the measured Ki for this one? O=C(OCC#CCSc1nnc(-c2cccc3ccccc23)o1)c1ccc(F)c(F)c1
< 10 nM

What value of Ki has been reported for the following compound? O=C(OCC#CCSc1nnc(-c2cccc3ccccc23)o1)c1sc(Cl)c(Cl)c1Cl
< 10 nM

Look up Ki for this compound: O=C(NCC#CCSc1nnc(-c2cccc3ccccc23)o1)c1cccs1
2000 nM

I would be grateful if you could share the reported Ki for O=C(OCC#CCSc1nnc(-c2cccc3ccccc23)o1)c1cccnc1F .
< 10 nM

Quick one: Ki for OCC#CCSc1nnc(-c2cccc3ccccc23)o1 ?
3500 nM

Look up Ki for this compound: O=C(OCC#CCSc1nnc(-c2cccc3ccccc23)o1)c1ccc(SC(F)(F)F)cc1
< 10 nM

Would you kindly share the measured Ki for O=C(OCC#CCSc1nnc(-c2ccc(F)cc2)o1)c1ccc(F)cc1 ?
< 10 nM

Query (compound): O=C(OCC#CCSc1nnc(-c2cccc3ccccc23)o1)c1ccc(OC(F)(F)F)cc1 ; field requested: Ki
< 10 nM

Suppose we examine the compound O=C(OCC#CCSc1nnc(-c2cccc3ccccc23)o1)c1ccc(OC(F)F)cc1 ; what Ki value has been reported?
< 10 nM

Value lookup for Ki; key = O=C(OCC#CCSc1nnc(-c2cccc3ccccc23)o1)C1CCCC1
< 10 nM

Look up Ki: O=C(OCC#CCSc1nnc(-c2cccc3ccccc23)o1)c1cc2ccccc2s1
< 10 nM

Return reported Ki; argument: O=C(OCC#CCNc1nnc(-c2cccc3ccccc23)o1)c1cccs1
1300 nM
